system_name: horseradish peroxidase (HRP) tagged delF508-CFTR (Homo sapiens, UniProt P13569, DEL508-508)
Construct: expressed in transfected cells
Sequence (P13569 with tags, fused parts or gaps DEL508-508): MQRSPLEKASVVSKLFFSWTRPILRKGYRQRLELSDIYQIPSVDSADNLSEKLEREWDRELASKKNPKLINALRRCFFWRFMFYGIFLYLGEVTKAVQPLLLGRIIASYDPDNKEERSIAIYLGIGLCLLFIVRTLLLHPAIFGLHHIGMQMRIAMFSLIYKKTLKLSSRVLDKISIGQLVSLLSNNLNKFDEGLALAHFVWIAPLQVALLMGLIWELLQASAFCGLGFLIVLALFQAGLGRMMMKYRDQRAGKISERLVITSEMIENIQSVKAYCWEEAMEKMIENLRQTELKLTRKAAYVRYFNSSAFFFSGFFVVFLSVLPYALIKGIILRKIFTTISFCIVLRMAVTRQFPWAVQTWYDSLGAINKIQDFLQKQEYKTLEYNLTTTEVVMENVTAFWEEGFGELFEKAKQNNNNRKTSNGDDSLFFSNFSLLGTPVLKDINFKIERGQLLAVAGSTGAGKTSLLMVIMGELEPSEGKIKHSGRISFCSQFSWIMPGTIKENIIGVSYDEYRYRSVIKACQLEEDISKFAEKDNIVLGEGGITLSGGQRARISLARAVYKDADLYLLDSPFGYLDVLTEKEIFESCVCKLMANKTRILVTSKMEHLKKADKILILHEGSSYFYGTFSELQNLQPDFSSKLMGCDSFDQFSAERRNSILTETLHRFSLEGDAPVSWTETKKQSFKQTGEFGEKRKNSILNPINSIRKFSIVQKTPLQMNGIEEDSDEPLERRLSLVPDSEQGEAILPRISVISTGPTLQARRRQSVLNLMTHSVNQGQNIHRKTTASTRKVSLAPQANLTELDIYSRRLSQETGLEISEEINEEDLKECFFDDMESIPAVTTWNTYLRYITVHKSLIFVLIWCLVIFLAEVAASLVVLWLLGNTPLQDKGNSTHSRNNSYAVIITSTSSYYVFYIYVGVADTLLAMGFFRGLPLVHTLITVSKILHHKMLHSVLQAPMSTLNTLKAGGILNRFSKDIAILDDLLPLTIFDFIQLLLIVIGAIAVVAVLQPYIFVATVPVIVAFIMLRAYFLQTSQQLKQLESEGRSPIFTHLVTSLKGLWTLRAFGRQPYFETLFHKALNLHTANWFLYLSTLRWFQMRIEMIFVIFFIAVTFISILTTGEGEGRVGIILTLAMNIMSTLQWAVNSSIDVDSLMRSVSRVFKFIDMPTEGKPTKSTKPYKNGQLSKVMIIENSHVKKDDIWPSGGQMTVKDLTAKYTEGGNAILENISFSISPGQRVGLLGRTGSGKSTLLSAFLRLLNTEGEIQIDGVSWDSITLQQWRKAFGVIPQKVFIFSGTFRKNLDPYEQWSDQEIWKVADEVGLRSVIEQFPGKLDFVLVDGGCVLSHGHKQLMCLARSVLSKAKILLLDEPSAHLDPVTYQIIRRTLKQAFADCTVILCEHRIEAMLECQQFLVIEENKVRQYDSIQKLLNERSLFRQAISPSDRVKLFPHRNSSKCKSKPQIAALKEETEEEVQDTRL
protocol_description: Measurement of delF508-CFTR-HRP surface expression in CFBE41o- cells
Type: cell-based
protocol_conditions: delF508-CFTR-HRP surface expression, CFBE41o- cells; read-out: DelF508-CFTR-HRP EC50
pEC50: −log10 of the molar value. Where a name gives a salt, the structure may show the parent alone.
observation_type: pEC50

query: So what's the measured pEC50 for this one? O=S(=O)(Nc1ccc(C(F)(F)F)c(-c2ccccc2C2CC2)n1)c1cccc(N2CC(O)C2)n1
result: 5.86

query: Which measured pEC50 value corresponds to Cc1ccccc1-c1nc(NS(=O)(=O)c2cccc(N3CCC(N)CC3)n2)ccc1C(F)(F)F [Example 108, Hydrochloride] ?
result: 5.39

query: What value of pEC50 has been recorded for this entry: Cc1ccc(F)cc1-c1nc(NS(=O)(=O)c2ccc(N)nc2)ccc1Cl
result: 5.75

a. Cc1cccc(C)c1-c1nc(NS(=O)(=O)c2cccc(N3CCNCC3)n2)ccc1Cl [Example 163, Hydrochloride]
b. Cc1c(F)cccc1-c1nc(NS(=O)(=O)c2cccc(N)n2)ccc1C(F)(F)F
query: Between a and b , whose measured pEC50 reads higher? Identify your selection by its label.
result: b
(b: 5.79, a: 5.50)

I. Cc1ccccc1-c1nc(NS(=O)(=O)c2cccc(N3C[C@H]4C[C@H]4[C@H]3C(=O)O)n2)ccc1C(F)(F)F
II. Cc1ccc(F)cc1-c1nc(NS(=O)(=O)c2cccc(N3CCN4CC[C@H]3C4)n2)ccc1C(F)(F)F
query: Compare I and II by numeric pEC50 and name the larger one. Respond using the label that marks the chosen record.
result: I
